In this section we review reported EC50 of the change in pulse interval (PI %), vagal stimulation in anaesthetised rats values for a set of binders.
# test.system: Y2-like receptors in anaesthetised rats (rat)
# method: cell-based or functional assay
Lab book: enter the figure in nmol, no units written.

Solved cases below.
INSERT INTO results (binder, assay_result) VALUES
  ('Ac-LRHYANLLTRQRY-NH2 [Ac[A28,L31]NPY24-36]', 2.75),
  ('Ac-LAHYRNLLTRQRY-NH2 [Ac[A25,R28,L31]NPY24-36]', 1.95),
  ('Ac-LRHYLNLLTRQRY-NH2 [Ac[L28,L31]NPY24-36]', 3.16);

Query string: Please report the recorded EC50 of the change in pulse interval (PI %), vagal stimulation in anaesthetised rats for Ac-LRHALNLLTRQRY-NH2 [Ac[A27,L28,L31]NPY24-36] .
Result string: 0.52

Query string: What value of EC50 of the change in pulse interval (PI %), vagal stimulation in anaesthetised rats has been reported for the following binder? Ac-LRHYLNLLARQRY-NH2 [Ac[L28,L31,A32]NPY24-36]
Result string: 6.46

Query string: I am curious: what EC50 of the change in pulse interval (PI %), vagal stimulation in anaesthetised rats value has been reported for Ac-ARHYLNLLTRQRY-NH2 [Ac[A24,L28,L31]NPY24-36] ?
Result string: 0.46

Query string: Quick one: EC50 of the change in pulse interval (PI %), vagal stimulation in anaesthetised rats of Ac-ARHALNLLTRQRY-NH2 (also called Ac[Ala24, Ala27, Leu28, Leu31]NPY(24-36)) [Ac[A24,A27,L28,L31]NPY24-36] ?
Result string: 0.89
